Entries and their inhibition at 10 µM values follow.
Target: MNK2 (Homo sapiens, UniProt Q9HBH9)
Sequence (Q9HBH9 whole entry, species assumed): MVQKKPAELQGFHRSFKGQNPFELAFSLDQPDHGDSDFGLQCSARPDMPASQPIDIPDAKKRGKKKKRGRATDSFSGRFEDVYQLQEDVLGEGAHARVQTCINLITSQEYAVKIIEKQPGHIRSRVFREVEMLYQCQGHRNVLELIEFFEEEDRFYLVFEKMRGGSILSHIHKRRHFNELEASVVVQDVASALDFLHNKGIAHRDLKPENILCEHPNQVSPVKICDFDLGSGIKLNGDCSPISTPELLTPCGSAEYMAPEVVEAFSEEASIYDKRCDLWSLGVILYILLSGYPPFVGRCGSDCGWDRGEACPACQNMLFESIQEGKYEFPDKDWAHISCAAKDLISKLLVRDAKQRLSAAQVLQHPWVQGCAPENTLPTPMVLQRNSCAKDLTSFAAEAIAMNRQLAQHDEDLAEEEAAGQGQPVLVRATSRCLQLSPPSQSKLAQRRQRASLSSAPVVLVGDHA
Assay: Kinase electrophoretic mobility shift assay, MNK2
Format: biochemical
Settings: compounds tested at 10 μM, average of n = 2, ATP at apparent Km; read-out: MNK2 activity (percent inhibition)

Compound	Value
CC1(C)CNC(=O)c2cc3cnc(N[C@H]4CC[C@H](O)CC4)nc3n21 [Compd 4]	71 to 90%

So what does the record say about inhibition at 10 µM for CCC1Cn2c(cc3cnc(N[C@H]4CC[C@H](O)CC4)nc32)C(=O)N1 (stereo partly shown) [Compd 5] ?
50 to 70%

And the next one, O=C1NC2(CCCC2)Cn2c1cc1cnc(N[C@H]3CC[C@H](O)CC3)nc12 [Compd 6] ?
50 to 70%

And the next one, O=C1NCC2(CCCC2)n2c1cc1cnc(N[C@H]3CC[C@H](O)CC3)nc12 [Compd 7] ?
71 to 90%
